Molecular target: T1, GIP receptor (GIPR) (UniProt P48546 22-466, limits assumed)
T1 sequence (looked up): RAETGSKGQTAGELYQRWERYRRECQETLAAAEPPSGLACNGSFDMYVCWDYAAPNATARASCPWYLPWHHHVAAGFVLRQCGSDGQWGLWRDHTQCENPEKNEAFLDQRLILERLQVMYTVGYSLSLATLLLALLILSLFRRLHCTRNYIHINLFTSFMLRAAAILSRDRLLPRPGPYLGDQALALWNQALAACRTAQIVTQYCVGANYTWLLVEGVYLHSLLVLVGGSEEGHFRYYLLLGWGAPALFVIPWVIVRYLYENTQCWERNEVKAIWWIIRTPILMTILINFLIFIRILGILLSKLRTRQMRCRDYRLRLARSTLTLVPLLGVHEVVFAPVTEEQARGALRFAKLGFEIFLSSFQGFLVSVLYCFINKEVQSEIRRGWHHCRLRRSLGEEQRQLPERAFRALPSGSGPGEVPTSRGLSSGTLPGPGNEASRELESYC
Assay: cell-based or functional assay
Bridge positions count the residues as written; N and C are the ends. Square brackets hold non-standard residues; d marks the D form. Ends that are not written are not given here. stapled body chem0212 = not defined here; stapled body chem0214 = not defined here; αMeL = CC(C)C[C@](C)(N)C(=O)O; Aib = CC(C)(N)C(=O)O
Where GIP-1 EC50 (nM); cAMP, agonistic activity equals or exceeds 0.0004 nM, the correct label is criterion met; where it does not, the label is criterion not met.

Example cases with answers are listed next.
binder	classification
Y[Aib]QGTFTSDYSI[αMeL]LDKKAQ[Aib]KFIEYLLKGGPSSGAPPPS-NH2 (linker 21-28 via stapled body chem0212; reading uncertain; also: further groups not given here) [Example 14]	criterion not met
H[Aib]HGTFTSDYSIYLEKKYA[Aib]EFVKWLLKGGPSSGAPPPS-NH2 (bridge 24-28; not fully specified (bridges); also: stapled body (lipidated) structure only in drawing chem0197) [Example 4]	criterion met
Y[Aib]QGTFTSDYSI[αMeL]KDKKAQ[Aib]AFIEYLLEGGPSSGAPPPS-NH2 (linker 14-17 via (2-2-oxoethyl)‑glycine, AEEA, γGlu, C20 diacid) [Example 21]	criterion met
Y[Aib]QGTFTSDYSI[αMeL]LDKKAQ[Aib][dK]FIEYLLEGGPSSGAPPPS-NH2 (linker 17-21 via stapled body chem0214; reading uncertain; also: further groups not given here) [Example 16]	criterion not met
Y[Aib]QGTFTSDYSI[αMeL]LDKKAQ[Aib]KFIEYLLEGGPSSGAPPPS-NH2 (bridge 17-21; also: further groups not given here) [Example 7]	criterion not met

Okay, next one:
stdin: Could you tell me if the measured GIP-1 EC50 (nM); cAMP, agonistic activity of Y[Aib]QGTFTSDYSI[αMeL]KDKKAQ[Aib]AFIEYLLEGGPSSGAPPPS-NH2 (linker 14-17 via (2-2-oxoethyl)‑glycine, AEEA, Lys, γGlu, C20 diacid) [Example 52] reaches 0.0004 nM or more?
stdout: criterion not met
